System: NCI-H226
experimentalDetails: NCI tumour cell line growth inhibition, 48 h
Activity calls are given as the source filed them. Rule as the data show it: active = GI50 up to about 1.1 µM and inactive = higher.
Listing of entries alongside the reported GI50.
measure: GI50

| molecule | measure | result |
| --- | --- | --- |
| CN1CCc2c(sc3ncn(Nc4ccc(Cl)cc4)c(=N)c23)C1 | GI50 | > 100 µM (inactive) |
| C=CC1(CC)/C(=N\O)C(CC)(CC)C(=O)N1O (stereo unspecified) | GI50 | > 100 µM (inactive) |
| COc1ccc(Cc2nc3ccccc3s2)cc1OC | GI50 | 21 µM (inactive) |
| Cc1ccc(O)c(C2=CC(c3cccc(Cl)c3)SC(=N)N2)c1 (stereo unspecified) | GI50 | 16.6 µM (inactive) |
| NC(=O)c1csc(C2O[C@@H](COP(=O)(O)OP(=O)(O)OC[C@H]3OC(n4cnc5c(N)ncnc54)[C@H](O)[C@@H]3O)[C@H](O)[C@@H]2O)n1 (stereo partly specified) | GI50 | > 100 µM (inactive) |
| O=C(NNS(=O)(=O)c1ccccc1)c1csc(NC(=S)NC2CCCCC2)n1 | GI50 | 67.5 µM (inactive) |
| Cc1c(-c2nnc(-c3ccccc3)o2)c(=O)n(-c2ccccc2)n1C | GI50 | > 100 µM (inactive) |
| Cc1cn(C2OC(CO[Si](C)(C)C(C)(C)C)C(N(C)O[Si](C)(C)C(C)(C)C)C2[Se]c2ccccc2)c(=O)[nH]c1=O (stereo unspecified) | GI50 | 3.95 µM (inactive) |
| CC(=O)OCC1OC(n2c3c(c(-c4ccc(C)cc4)c(C#N)c2=S)C(=O)CC(C)(C)C3)C(OC(C)=O)C(OC(C)=O)C1OC(C)=O (stereo unspecified) | GI50 | 23.3 µM (inactive) |
| CC[n+]1c(/C=C/c2cc(C(=O)OC)n3c2sc2ccccc23)sc2ccccc21 | GI50 | 23 µM (inactive) |
| CCOP(=O)(CN1CCNCCNCC1)OCC | GI50 | > 100 µM (inactive) |
| CCOC(=O)c1c(Sc2ccc([N+](=O)[O-])cc2[N+](=O)[O-])nc2c3ccccc3ccn12 | GI50 | 83.6 µM (inactive) |
| CC(C)(CO)CNc1nc(N)nc(Cl)c1/C=N/O | GI50 | 22.6 µM (inactive) |
| Cc1cccc(/C=C2\CCCc3ccccc3C2=O)c1 | GI50 | 20.6 µM (inactive) |
| CC(C)=CC(=O)Cc1nc2ccc([N+](=O)[O-])cc2[nH]c1=O | GI50 | > 100 µM (inactive) |
| O=C1C2ON3c4ccccc4C(=O)C3(c3ccccc3)C2C(=O)N1c1ccccc1 (stereo unspecified) | GI50 | > 100 µM (inactive) |
| N#Cc1c(N)oc(-c2ccc([N+](=O)[O-])cc2)c1C#N | GI50 | 17.9 µM (inactive) |
| Cc1nc2cccc(F)c2c(=O)n1C1CCCCNC1=O (stereo unspecified) | GI50 | > 10 µM (inactive) |
| COC(=O)c1ccc(Cc2cc(Cc3ccc(C(=O)OC)cc3)cc(Cc3ccc(C(=O)OC)cc3)c2)cc1 | GI50 | > 25 µM (inactive) |
| COc1ccc2c(c1)-c1nc(=O)n(CCCN(C)C)c3ccc([N+](=O)[O-])c(c13)N2 | GI50 | 3.81 µM (inactive) |
| CO/N=C\c1ccc2c(c1)Sc1ccccc1O2 | GI50 | > 100 µM (inactive) |

Data origin: ChEMBL document CHEMBL1201862
